Consider the following compounds and their measured remaining at 1 h readings.
- Assay Method Text: Metabolic stability in mouse liver microsomes assessed as parent compound remaining preincubated for 15 mins followed by NADPH addition and measured after 1 hr by LC-MS/MS analysis
- Format: ADME, Microsome
- Assay Context: time 75 min, read-out: Stability
The figure you give is taken to be in %; do not add the unit.

> print(dat)
                                   compound  data.value
1  CN1CCC(Cc2cc(CNC3(c4ccc(F)cc4)CCCC3)c(F)cc2F)CC1          58
2  CN1CCC(Cc2cccc(CNC3(c4ccc(F)c(Cl)c4)CCCC3)c2)CC1          53
3  COc1cc(C2(NCc3cccc(CC4CCN(C)CC4)c3)CCCC2)ccc1F          62
4  CN1CC(Cc2cccc(CNC3(c4ccc(F)cc4)CCCC3)c2)C1          63
5  COc1cc(F)ccc1C1(NCc2ccc(F)c(CC3CCN(C)CC3)c2)CCCC1          55
6  CN1CCC(Cc2cccc(CNC3(c4ccc(F)c(O)c4)CCCC3)c2)CC1          80

# remaining at 1 h of `CN1CCC(Cc2cccc(CNC3(c4ccc(F)cc4O)CCCC3)c2)CC1` = 34

# remaining at 1 h of `CN1CCC(Cc2cccc(CNC3(c4ccc(F)cc4F)CCCC3)c2)CC1` = 19

# remaining at 1 h of `CN1CCC(Cc2cc(CNC3(c4ccc(F)c(F)c4)CCCC3)ccc2F)CC1` = 48

# remaining at 1 h of CN1CCC(Cc2cccc(CNC3(c4ccc(F)cc4)CCCC3)c2)CC1(C)C (racemic) = 58

# remaining at 1 h of `COc1cc(F)ccc1C1(NCc2cccc(CC3CCN(C)CC3)c2)CCCC1` = 64

# remaining at 1 h of `CN1CCC(Cc2cccc(CNC3(c4ccc(F)c(F)c4)CCCC3)c2)CC1` = 56

# remaining at 1 h of `CN1CCC(Cc2cc(CNC3(c4ccc(F)cc4)CCCC3)ccc2O)CC1` = 61

# remaining at 1 h of `CN1CC2(CC(Cc3cccc(CNC4(c5ccc(F)c(F)c5)CCCC4)c3)C2)C1` = 56

# remaining at 1 h of `Fc1ccc(C2(NCc3ccc(F)c(CC4CCNCC4)c3)CCCC2)cc1` = 84

# remaining at 1 h of `CN1CCC(Cc2cccc(CNC3(c4ccc(F)cc4)CCCC3)c2)CC1` = 66

----------
- Assay Method Text: Metabolic stability in human liver microsomes assessed as parent compound remaining preincubated for 15 mins followed by NADPH addition and measured after 1 hr by LC-MS/MS analysis
- Type: ADME, Microsome
- Assay Context: time 75 min, read-out: Stability
Consider the following compounds and their measured remaining at 1 h readings.
The figure you give is taken to be in %; do not add the unit.

The following compounds have reported results that may help.
> print(dat)
                         compound.structure  measured.quantity  data.value
1  CN1CCC(Cc2ccc(O)c(CNC3(c4ccc(F)cc4)CCCC3)c2)CC1   remaining at 1 h          74
2  COc1cc(F)ccc1C1(NCc2ccc(F)c(CC3CCN(C)CC3)c2)CCCC1   remaining at 1 h          75
3  CN1CCC(Cc2cc(CNC3(c4ccc(F)cc4)CCCC3)c(F)cc2F)CC1   remaining at 1 h          76

Now for a further compound.
# remaining at 1 h of `CN1CCC(Cc2cccc(CNC3(c4ccc(F)cc4)CCCC3)c2)CC1` = 79
